meta.source: ChEMBL document CHEMBL4118266

# assay_system: Transient receptor potential cation channel subfamily V member 1 (Homo sapiens, UniProt Q8NER1)
# Sequence (Q8NER1 whole entry): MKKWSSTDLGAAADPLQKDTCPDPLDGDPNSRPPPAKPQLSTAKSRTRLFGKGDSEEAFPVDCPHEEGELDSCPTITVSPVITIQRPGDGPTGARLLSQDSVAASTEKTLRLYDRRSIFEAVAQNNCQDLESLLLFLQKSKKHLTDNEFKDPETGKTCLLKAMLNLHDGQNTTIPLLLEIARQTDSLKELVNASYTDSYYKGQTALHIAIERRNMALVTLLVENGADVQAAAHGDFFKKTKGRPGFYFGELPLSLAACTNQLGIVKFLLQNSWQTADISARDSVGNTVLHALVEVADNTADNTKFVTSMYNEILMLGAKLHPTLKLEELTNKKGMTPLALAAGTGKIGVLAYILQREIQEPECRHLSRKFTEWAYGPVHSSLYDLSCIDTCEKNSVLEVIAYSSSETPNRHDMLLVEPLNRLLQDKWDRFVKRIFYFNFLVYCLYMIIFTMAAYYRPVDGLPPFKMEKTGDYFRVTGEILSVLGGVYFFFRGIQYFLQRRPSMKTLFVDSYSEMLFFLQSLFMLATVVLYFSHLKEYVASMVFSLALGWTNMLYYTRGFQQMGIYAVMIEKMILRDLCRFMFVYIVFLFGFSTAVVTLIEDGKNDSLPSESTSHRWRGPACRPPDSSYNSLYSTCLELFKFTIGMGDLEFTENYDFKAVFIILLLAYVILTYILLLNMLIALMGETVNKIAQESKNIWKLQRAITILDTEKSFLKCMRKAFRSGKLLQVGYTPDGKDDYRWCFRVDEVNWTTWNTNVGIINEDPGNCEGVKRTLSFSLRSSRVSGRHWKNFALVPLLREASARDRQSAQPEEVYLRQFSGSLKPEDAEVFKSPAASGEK
# assay_overview: Displacement of [3H]RTX from human TRPV1 expressed in HEK293 cell membranes after 60 mins by scintillation counting method
pIC50: −log10 of the molar value.
Values of pIC50 greater than or equal to 7 map to YES; values below map to NO.

Worked examples follow.
CN1CCCc2ccc(NC(=O)c3ccc(-c4ccccc4)c(CN4CCCCC4)c3)cc21 = NO
Cl.O=C(Nc1cccc(O)c1)c1ccc(-c2ccccc2)c(CN2CCCCC2)c1 = NO
CN(C)c1ccc(NC(=O)c2ccc(-c3ccccc3)c(CN3CCCCC3)c2)cn1 = NO
CN1C(=O)CCc2ccc(NC(=O)c3ccc(-c4ccccc4)c(CN4CCSCC4)c3)cc21.Cl = YES
COc1cccc(NC(=O)c2ccc(-c3ccccc3)c(CN3CCCCC3)c2)c1.Cl = NO

Say whether CCCN1C(=O)CCc2ccc(NC(=O)c3ccc(-c4ccccc4)c(CN4CCCCC4)c3)cc21.Cl shows pIC50 of 7 or more. NO

====

# assay_overview: Intrinsic clearance in human liver microsomes at 0.2 uM measured up to 45 mins by LC-MS/MS analysis
# Assay type: ADME, microsome
# settings: read-out: CLH
List of CLint scaled at 0.2 µM values.
Just the number in mL/min/kg, nothing appended.

C[C@H]1CCCN1Cc1cc(C(=O)Nc2ccc3c(c2)N(C)C(=O)CC3)ccc1-c1ccccc1.Cl = 114
Br.Br.O=C(Nc1ccc2cccnc2c1)c1ccc(-c2ccccc2)c(CN2CCCCC2)c1 = 287

Could you now look at the following compound, please?
Query Cl.O=C1CCc2ccc(NC(=O)c3ccc(-c4ccccc4)c(CN4CCCCC4)c3)cc2N1 yields CLint scaled at 0.2 µM of 96

====

# assay_overview: Aqueous solubility of the compound at pH 6.8 after 20 hrs by HPLC analysis
# Format: physicochemical
# settings: buffer
Mark not satisfied for solubility at 20 h values under 10 µM, and satisfied for everything at or above.

Cl.O=C(Nc1cccc(O)c1)c1ccc(-c2ccccc2)c(CN2CCCCC2)c1 = not satisfied
CN(C)c1cccc(NC(=O)c2ccc(-c3ccccc3)c(CN3CCCCC3)c2)c1.Cl = satisfied
CN1C(=O)CCc2ccc(NC(=O)c3ccc(-c4ccccc4)c(CN4CCOCC4)c3)cc21.Cl = satisfied

Please check the record Cl.Cl.O=C(Nc1cnc2ccccc2c1)c1ccc(-c2ccccc2)c(CN2CCCCC2)c1 and state if its solubility at 20 h is at or above 10 µM. not satisfied

Item CN1C(=O)CCc2ccc(NC(=O)c3ccc(-c4ccccc4)c(CN4CCCCC4)c3)cc21.Cl with solubility at 20 h of 10 µM or above? satisfied

Quick check, solubility at 20 h >= 10 µM? COc1cccc(NC(=O)c2ccc(-c3ccccc3)c(CN3CCCCC3)c2)c1.Cl satisfied

Determine whether this molecule has solubility at 20 h no lower than 10 µM: C[C@H]1CCCN1Cc1cc(C(=O)Nc2ccc3c(c2)N(C)C(=O)CC3)ccc1-c1ccccc1.Cl satisfied

Is solubility at 20 h at least 10 µM? Consider COC[C@@H]1CCCN1Cc1cc(C(=O)Nc2ccc3c(c2)N(C)C(=O)CC3)ccc1-c1ccccc1.O=C(O)C(=O)O not satisfied

Check if solubility at 20 h >= 10 µM (inclusive). Item: CN(C)c1ccc(NC(=O)c2ccc(-c3ccccc3)c(CN3CCCCC3)c2)cn1 satisfied

====

# assay_overview: Aqueous solubility of the compound at pH 6.8 after 20 hrs by HPLC analysis
# Format: physicochemical
# settings: buffer
metric_name: solubility at 20 h

C[C@@H]1CCCN1Cc1cc(C(=O)Nc2ccc3c(c2)N(C)C(=O)CC3)ccc1-c1ccccc1.Cl = > 100 µM
CCCN1C(=O)CCc2ccc(NC(=O)c3ccc(-c4ccccc4)c(CN4CCCCC4)c3)cc21.Cl = 25 µM
Cl.O=C1CCc2ccc(NC(=O)c3ccc(-c4ccccc4)c(CN4CCCCC4)c3)cc2N1 = 94 µM

API: the following record is the query input.
response.value for Cl.O=C1COc2ccc(NC(=O)c3ccc(-c4ccccc4)c(CN4CCCCC4)c3)cc2N1 (field: solubility at 20 h) = > 100 µM

====

# assay_overview: Intrinsic clearance in human liver microsomes at 0.2 uM measured up to 45 mins by LC-MS/MS analysis
# Type: ADME, microsome
# settings: read-out: CLH
Values of CLint scaled at 0.2 µM strictly less than 300 mL/min/kg map to TRUE, and values of at least 300 mL/min/kg map to FALSE.

Below 300 mL/min/kg on CLint scaled at 0.2 µM? Entry Cl.O=C(Nc1ccc2ccc(=O)[nH]c2c1)c1ccc(-c2ccccc2)c(CN2CCCCC2)c1 TRUE

Hi there! Is CLint scaled at 0.2 µM for CCN1C(=O)CCc2ccc(NC(=O)c3ccc(-c4ccccc4)c(CN4CCCCC4)c3)cc21.Cl below 300 mL/min/kg, do you know? TRUE

Confirm or reject: CLint scaled at 0.2 µM of C[C@@H]1CCCN1Cc1cc(C(=O)Nc2ccc3c(c2)N(C)C(=O)CC3)ccc1-c1ccccc1.Cl lies strictly below 300 mL/min/kg TRUE

# TODO verify CLint scaled at 0.2 µM < 300 mL/min/kg strictly for this molecule: CN1C(=O)CCc2ccc(NC(=O)c3ccc(-c4ccccc4)c(CN4CCOCC4)c3)cc21.Cl TRUE

Quick check: CLint scaled at 0.2 µM of CCCN1C(=O)CCc2ccc(NC(=O)c3ccc(-c4ccccc4)c(CN4CCCCC4)c3)cc21.Cl under 300 mL/min/kg? FALSE

Please check: CLint scaled at 0.2 µM for Cl.Cl.O=C(Nc1cnc2ccccc2c1)c1ccc(-c2ccccc2)c(CN2CCCCC2)c1 , strictly under 300 mL/min/kg or not? FALSE

CLint scaled at 0.2 µM under 300 mL/min/kg? Item: Cl.O=C1COc2ccc(NC(=O)c3ccc(-c4ccccc4)c(CN4CCCCC4)c3)cc2N1 TRUE

====

# maps each entry to its activity at 5 µM
# assay_system: CYP3A4 (Homo sapiens, UniProt P08684)
# Sequence (P08684 whole entry): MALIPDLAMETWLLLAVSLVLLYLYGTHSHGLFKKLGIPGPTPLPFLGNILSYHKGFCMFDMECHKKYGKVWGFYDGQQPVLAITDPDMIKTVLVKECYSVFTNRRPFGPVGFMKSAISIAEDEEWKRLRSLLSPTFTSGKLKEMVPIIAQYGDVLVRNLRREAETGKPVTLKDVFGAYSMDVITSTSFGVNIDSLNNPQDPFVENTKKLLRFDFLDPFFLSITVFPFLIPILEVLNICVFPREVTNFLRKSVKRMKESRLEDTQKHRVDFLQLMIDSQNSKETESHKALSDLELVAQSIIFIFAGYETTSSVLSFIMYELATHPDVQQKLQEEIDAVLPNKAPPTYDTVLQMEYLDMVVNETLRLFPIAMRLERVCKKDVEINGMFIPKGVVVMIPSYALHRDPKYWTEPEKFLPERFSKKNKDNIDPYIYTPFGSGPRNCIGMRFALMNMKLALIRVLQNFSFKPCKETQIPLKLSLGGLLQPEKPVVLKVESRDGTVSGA
# assay_overview: Time-dependent inhibition of CYP3A4 in human liver microsomes assessed as residual activity at 5 uM using midazolam as substrate by LC-MS/MS analysis relative to control
# Format: ADME
# settings: probe midazolam, read-out: Activity
Write it as a number; the unit % goes unstated.

Some molecules with recorded activity at 5 µM:
CN(C)c1cccc(NC(=O)c2ccc(-c3ccccc3)c(CN3CCCCC3)c2)c1.Cl = 67
CCCN1C(=O)CCc2ccc(NC(=O)c3ccc(-c4ccccc4)c(CN4CCCCC4)c3)cc21.Cl = 94

The molecule CN1C(=O)CCc2ccc(NC(=O)c3ccc(-c4ccccc4)c(CN4CCSCC4)c3)cc21.Cl showed activity at 5 µM equal to 114

Form: molecule = CCN1C(=O)CCc2ccc(NC(=O)c3ccc(-c4ccccc4)c(CN4CCCCC4)c3)cc21.Cl ; activity at 5 µM = 114

// field: activity at 5 µM; key: COc1cccc(NC(=O)c2ccc(-c3ccccc3)c(CN3CCCCC3)c2)c1.Cl ; value = 78

The molecule listed as Cl.Cl.O=C(Nc1cnc2ccccc2c1)c1ccc(-c2ccccc2)c(CN2CCCCC2)c1 shows activity at 5 µM equal to 75

Per the records, this molecule ( Cl.O=C(Nc1ccc2ccc(=O)[nH]c2c1)c1ccc(-c2ccccc2)c(CN2CCCCC2)c1 ) has activity at 5 µM equal to 86

====

# assay_overview: Aqueous solubility of the compound at pH 6.8 after 20 hrs by HPLC analysis
# Assay type: physicochemical
# settings: buffer
metric_name: solubility at 20 h

Sample answers from the record:
Br.Br.O=C(Nc1ccc2cccnc2c1)c1ccc(-c2ccccc2)c(CN2CCCCC2)c1 = > 100 µM
CN1C(=O)CCc2ccc(NC(=O)c3ccc(-c4ccccc4)c(CN4CCSCC4)c3)cc21.Cl = < 1 µM

# context switch: different compound, same solubility at 20 h
Entry Cl.O=C(Nc1ccc2scnc2c1)c1ccc(-c2ccccc2)c(CN2CCCCC2)c1 , solubility at 20 h reported as > 100 µM

====

# assay_system: Transient receptor potential cation channel subfamily V member 1 (Homo sapiens)
# assay_overview: Agonist activity at human TRPV1 expressed in CHO cells assessed as increase in capsaicin-induced intracellular calcium flux up to 1 uM by Fluo-3 AM dye based fluorescence assay relative to 1 uM capsaicin
# Type: cell-based
Please use Met for Activity under 50% and Not met for everything else, ties included.

O=C(Nc1ccc2[nH]ncc2c1)c1ccc(-c2ccccc2)c(CN2CCCCC2)c1 = Not met
Cl.O=C1CCc2ccc(NC(=O)c3ccc(-c4ccccc4)c(CN4CCCCC4)c3)cc2N1 = Met
Cl.O=C1COc2ccc(NC(=O)c3ccc(-c4ccccc4)c(CN4CCCCC4)c3)cc2N1 = Met
O=C(Nc1ccc2oc(=O)[nH]c2c1)c1ccc(-c2ccccc2)c(CN2CCCCC2)c1 = Not met
CCCN1C(=O)CCc2ccc(NC(=O)c3ccc(-c4ccccc4)c(CN4CCCCC4)c3)cc21.Cl = Met
O=C1Cc2ccc(NC(=O)c3ccc(-c4ccccc4)c(CN4CCCCC4)c3)cc2N1 = Not met

Is Activity of C[C@H]1CCCN1Cc1cc(C(=O)Nc2ccc3c(c2)N(C)C(=O)CC3)ccc1-c1ccccc1.Cl strictly below 50%? Met

Is Activity strictly under 50% for the entry Cl.Cl.O=C(Nc1cnc2ccccc2c1)c1ccc(-c2ccccc2)c(CN2CCCCC2)c1 ? Met

Identify whether the compound COC[C@@H]1CCCN1Cc1cc(C(=O)Nc2ccc3c(c2)N(C)C(=O)CC3)ccc1-c1ccccc1.O=C(O)C(=O)O records Activity below 50%. Met

Determine whether this compound shows Activity lower than 50% (ties excluded): O=C(Nc1ccc2[nH]cnc2c1)c1ccc(-c2ccccc2)c(CN2CCCCC2)c1 Not met

Threshold test, Activity < 50%: CN(C)c1cccc(NC(=O)c2ccc(-c3ccccc3)c(CN3CCCCC3)c2)c1.Cl Met
